Target: rat striatal A2a receptors (Rattus norvegicus)
Assay: Radioligand binding, [3H]CGS 21680, rat striatal A2a receptors
Design: Rat cerebral cortical membranes and striatal membranes were prepared; from tissue; host or cells: rat striatal membranes
Settings: Table I; vs [3H]CGS21680 (5 nM), rat striatal A2 receptors; read-out: Ki (A2a)
Exam item: assign true to entries whose Ki is below 400 nM and false to entries at or above 400 nM. Note that a value of exactly 400 nM receives false.

Below, 5 compounds whose answers are already recorded.
CCCn1c(=O)c2c(nc(/C=C/c3cccc(F)c3)n2C)n(CCC)c1=O [Compound 50b]
true
COc1cccc(/C=C/c2nc3c([nH]2)c(=O)n(C)c(=O)n3C)c1 [Compound 19a]
true
COc1ccc(/C=C/c2nc3c(c(=O)n(C)c(=O)n3C)n2C)c(OC)c1OC [Compound 43b]
true
CCCn1c(=O)c2c(nc(/C=C/c3ccc(OC)c(OC)c3OC)n2C)n(CCC)c1=O [Compound 55b]
true
Cn1c(=O)c2c(nc(/C=C/c3cccc(NC(=O)OC(C)(C)C)c3)n2C)n(C)c1=O
false

// next entry
[Q] Does this compound meet the criterion Ki < 400 nM? `COc1cc(/C=C/c2nc3c(c(=O)n(C)c(=O)n3C)n2C)cc(OC)c1OCCCCNC(=O)OC(C)(C)C`
[A] true

###

Molecular target: rat A1 cortical receptors (Rattus norvegicus, UniProt P25099)
Construct: Rat cerebral cortical membranes and striatal membranes were prepared; from tissue; host or cells: rat cerebral cortex membranes
Assay: Radioligand binding, [3H]N6-phenylisopropyladenosine ([3H]PIA), rat cortical A1 receptors
Settings: Table I; vs [3H]PIA (1 nM), rat A1 receptors; read-out: Ki (A1)
Sorting guide: entries reporting Ki beneath 2000 nM go in the yes pile, the rest go in the no pile.

Field: example entries. Status: answers known.
Cn1c(=O)c2c(nc(/C=C/c3cccc(N)c3)n2C)n(C)c1=O [Compound 22b]
yes
CCCn1c(=O)c2c(nc(/C=C/c3cccc(N)c3)n2C)n(CCC)c1=O
yes
CCCn1c(=O)c2c(nc(/C=C/c3cc(OC)cc(OC)c3)n2C)n(CCC)c1=O [Compound 53b]
no

As a next step, examine the molecule that follows.
[Q] Is 2000 nM strictly greater than the molecule's reported Ki? molecule: Cn1c(=O)c2[nH]c(/C=C/c3cccc(F)c3)nc2n(C)c1=O [Compound 27a]
[A] no

###

Target: rat striatal A2a receptors (Rattus norvegicus, UniProt P30543)
Sequence (P30543 whole entry): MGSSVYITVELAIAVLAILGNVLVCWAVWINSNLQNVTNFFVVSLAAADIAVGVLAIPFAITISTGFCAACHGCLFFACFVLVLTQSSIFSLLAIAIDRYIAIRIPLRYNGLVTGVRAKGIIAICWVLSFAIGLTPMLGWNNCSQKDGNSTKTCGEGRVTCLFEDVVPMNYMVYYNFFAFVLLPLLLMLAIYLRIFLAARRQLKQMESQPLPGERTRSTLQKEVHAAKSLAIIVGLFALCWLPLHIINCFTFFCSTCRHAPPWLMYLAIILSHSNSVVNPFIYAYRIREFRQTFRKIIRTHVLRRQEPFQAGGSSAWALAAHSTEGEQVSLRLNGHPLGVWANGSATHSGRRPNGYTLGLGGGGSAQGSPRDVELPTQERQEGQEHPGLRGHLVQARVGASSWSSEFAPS
Experiment: Radioligand binding, [3H]CGS 21680, rat striatal A2a receptors
Parameters: Rat cerebral cortical membranes and striatal membranes were prepared; from tissue; host or cells: rat striatal membranes
Details: Table I; vs [3H]CGS21680 (5 nM), rat striatal A2 receptors; read-out: Ki (A2a)
Field: label. Allowed values: yes (Ki < 200 nM) or no (Ki >= 200 nM).

Examples from the recorded data:
CCCn1c(=O)c2[nH]c(/C=C/c3cc(OC)c(OC)cc3OC)nc2n(CCC)c1=O [Compound 56a]
no
COc1ccccc1/C=C/c1nc2c([nH]1)c(=O)n(C)c(=O)n2C [Compound 17a, 1,3-Dimethyl-8-(2-methoxystyryl)xanthine]
no

[Q] Is it true that Ki reported for COc1cc(/C=C/c2nc3c(c(=O)n(C)c(=O)n3C)n2C)cc(OC)c1O [Compound 35] is less than 200 nM?
[A] no

[Q] is_below(Ki, 200 nM) for CCCn1c(=O)c2c(nc(/C=C/c3cccc([N+](=O)[O-])c3)n2C)n(CCC)c1=O [Compound 48] ?
[A] yes

[Q] State whether 200 nM exceeds Ki recorded for Cn1c(=O)c2[nH]c(/C(F)=C/c3ccccc3)nc2n(C)c1=O [Compound 16] .
[A] no

[Q] Check if Ki falls below 200 nM for Cn1c(=O)c2[nH]c(/C=C/c3cccc(C(F)(F)F)c3)nc2n(C)c1=O [Compound 20a] .
[A] no

[Q] Given the entry Cn1c(=O)c2[nH]c(/C=C/c3cccc(O)c3)nc2n(C)c1=O [Compound 18] , would its reported Ki be below 200 nM?
[A] no

[Q] Confirm or reject: Ki of COc1ccc(/C=C/c2nc3c(c(=O)n(C)c(=O)n3C)n2C)cc1 [Compound 29b] lies strictly below 200 nM
[A] no

[Q] Here's an entry: COc1cc(/C=C/c2nc3c(c(=O)n(C)c(=O)n3C)n2C)cc(OC)c1OCc1ccccc1 [Compound 37] . Is its Ki below 200 nM?
[A] yes

[Q] Threshold test, Ki < 200 nM: CCn1c(/C=C/c2cc(OC)c(OC)c(OC)c2)nc2c1c(=O)n(C)c(=O)n2C [Compound 44c]
[A] no

[Q] Bench note: check whether COc1ccc(/C=C/c2nc3c([nH]2)c(=O)n(C)c(=O)n3C)cc1OC [Compound 32a] shows Ki below 200 nM
[A] no

[Q] Is Ki of Cn1c(=O)c2[nH]c(/C=C/c3cccc([N+](=O)[O-])c3)nc2n(C)c1=O [Compound 21a, 1,3-Dimethyl-8-(3-nitrostyryl)xanthine] strictly below 200 nM?
[A] no

[Q] Quick check: Ki of COc1cccc(/C=C/c2nc3c(c(=O)n(C)c(=O)n3C)n2C)c1 [Compound 19b] under 200 nM?
[A] yes

[Q] Answer whether the molecule CC(=O)Nc1cccc(/C=C/c2nc3c(c(=O)n(C)c(=O)n3C)n2C)c1 [Compound 23] has Ki strictly less than 200 nM
[A] yes

[Q] Is Ki of CCCn1c(=O)c2[nH]c(/C=C/c3ccc(OC)c(OC)c3OC)nc2n(CCC)c1=O [Compound 55a] strictly below 200 nM?
[A] yes

###

Molecular target: rat striatal A2a receptors (Rattus norvegicus, UniProt P30543)
Assay: Radioligand binding, [3H]CGS 21680, rat striatal A2a receptors
Design: Rat cerebral cortical membranes and striatal membranes were prepared; from tissue; host or cells: rat striatal membranes
Details: Table I; vs [3H]CGS21680 (5 nM), rat striatal A2 receptors; read-out: Ki (A2a)
Define the label as fulfilled when Ki is strictly less than 200 nM and as not fulfilled in all remaining cases.

Solved entries:
COc1cc(/C=C/c2nc3c(c(=O)n(C)c(=O)n3C)n2C)cc(OC)c1OCCCCN
fulfilled
CCCn1c(=O)c2c(nc(/C=C/c3cc(OC)c(OC)cc3OC)n2C)n(CCC)c1=O [Compound 56b]
not fulfilled
CCCn1c(=O)c2c(nc(/C=C/c3cc(F)cc(F)c3)n2C)n(CCC)c1=O [Compound 54b]
fulfilled

[Q] For this molecule, is Ki lower than 200 nM? CCCn1c(=O)c2[nH]c(/C=C/c3cccc(F)c3)nc2n(CCC)c1=O [Compound 50a]
[A] fulfilled

[Q] Determine whether this molecule shows Ki lower than 200 nM (ties excluded): `Cn1c(=O)c2c(nc(/C=C/c3cccc(NC(=O)CCC(=O)O)c3)n2C)n(C)c1=O`
[A] fulfilled

###

Biological target: A1 receptors, rat striatum (Rattus norvegicus, UniProt P25099)
Construct: Striatal tissue was isolated by dissection of rabbit, bovine, and rat brain; tissue Pel-Freeze Biologicals Co; host or cells: rat striatal membranes (frozen brain)
Sequence (P25099 whole entry): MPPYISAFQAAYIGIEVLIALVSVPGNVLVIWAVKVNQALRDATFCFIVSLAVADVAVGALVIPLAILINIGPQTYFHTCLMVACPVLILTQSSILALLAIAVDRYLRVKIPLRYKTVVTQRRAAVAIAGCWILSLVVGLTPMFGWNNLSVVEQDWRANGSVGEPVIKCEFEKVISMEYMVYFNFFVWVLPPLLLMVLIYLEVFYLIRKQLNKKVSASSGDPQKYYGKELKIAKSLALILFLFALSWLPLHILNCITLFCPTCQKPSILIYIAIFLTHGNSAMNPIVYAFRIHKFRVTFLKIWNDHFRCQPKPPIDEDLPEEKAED
Assay: Competition binding vs [3H]PIA, rat striatal membranes
Conditions: IC50 at A1-receptors, rat striatum
measure.name: IC50 (µM)
Write the answer as a number in µM, unit excluded.

# IC50 (compound: Cn1c(=O)c2c(nc(/C=C/c3cccc(N=C=S)c3)n2C)n(C)c1=O [Compound 28e] ) is 43

###

Reported A1/A2a ratio values are given for each entry in this list.
Molecular target: rat striatal A2a receptors (Rattus norvegicus)
Assay: Radioligand binding, [3H]CGS 21680, rat striatal A2a receptors
Design: Rat cerebral cortical membranes and striatal membranes were prepared; from tissue; host or cells: rat striatal membranes
Settings: Table I; ratio of Ki values
// return a plain number; no unit text

COc1cc(/C=C/c2nc3c(c(=O)n(C)c(=O)n3C)n2C)cc(OC)c1O [Compound 35]
19
COc1ccc(/C=C/c2nc3c([nH]2)c(=O)n(C)c(=O)n3C)cc1 [Compound 29a, 1,3-Dimethyl-8-(4-methoxystyryl)xanthine]
1.8
CCCn1c(=O)c2c(nc(/C=C/c3cc(F)cc(F)c3)n2C)n(CCC)c1=O [Compound 54b]
7.2
COc1cc(/C=C/c2nc3c(c(=O)n(C)c(=O)n3C)n2C)cc(OC)c1OC/C=C/CN [Compound 40]
28
Cn1c(=O)c2c(nc(/C=C/c3cc(F)cc(F)c3)n2C)n(C)c1=O [Compound 34b]
230

Now for another entry.
Sample CCCn1c(=O)c2c(nc(/C=C/c3cccc([N+](=O)[O-])c3)n2C)n(CCC)c1=O [Compound 48] ; A1/A2a ratio observed: 4.8

###

Molecular target: rat striatal A2a receptors (Rattus norvegicus)
Test: Radioligand binding, [3H]CGS 21680, rat striatal A2a receptors
Design: Rat cerebral cortical membranes and striatal membranes were prepared; from tissue; host or cells: rat striatal membranes
Details: Table I; ratio of Ki values
measure.name: A1/A2a ratio
Reply with the value as a number alone.

A selection of reference data follows.
CCCn1c(=O)c2c(nc(/C=C/c3cccc(N)c3)n2C)n(CCC)c1=O
6.0
CC(=O)Nc1cccc(/C=C/c2nc3c(c(=O)n(C)c(=O)n3C)n2C)c1
240
CCn1c(=O)c2[nH]c(/C=C/c3cc(OC)c(OC)c(OC)c3)nc2n(CC)c1=O [Compound 45a]
3.2
COc1cc(/C=C/c2nc3c(c(=O)n(C)c(=O)n3C)n2C)cc(OC)c1OC(C)=O
93

The value of A1/A2a ratio measured for the molecule `Cn1c(=O)c2[nH]c(/C(F)=C/c3ccccc3)nc2n(C)c1=O` turned out to be 1.4

Form field A1/A2a ratio, entry `COc1cc(/C=C/c2nc3c(c(=O)n(C)c(=O)n3C)n2C)cc(OC)c1OCCCCN` : 36

Measured A1/A2a ratio, Cn1c(=O)c2c(nc(/C=C/c3cccc([N+]#N)c3)n2C)n(C)c1=O [Compound 28d] : 46

Please fill in: A1/A2a ratio reported for `COc1cc(/C=C/c2nc3c(c(=O)n(C)c(=O)n3C)n2C)cc(OC)c1OCCCCNC(=O)OC(C)(C)C` = 42

For CCCn1c(=O)c2[nH]c(/C=C/c3cccc(Cl)c3)nc2n(CCC)c1=O [Compound 51a] the molecule record lists A1/A2a ratio as 0.77
